# Test system: HOP-92
# protocol-notes: NCI tumour cell line growth inhibition, 48 h
Activity calls are given as the source filed them. Rule as the data show it: active = GI50 up to about 1.1 µM and inactive = higher. Bridge positions count the residues as written; N and C are the ends. Square brackets hold non-standard residues; d marks the D form. Peptide text beside a SMILES is read from it. * marks the point of attachment. Cya = N[CH](CS(=O)(=O)O)C(=O)O; X49 = CC(C)CCCCCCCC(O)CC(=O)*; GABA = NCCCC(=O)O
Choose one outcome from this list and give only that: yes (1) for active, no (0) for inactive

Write down the call the test reported for this compound. Item: CC[C@](O)(CC(=O)O[C@H]1C(=O)O[C@@H]2C[C@H]3C(C)=CC(=O)[C@@H](O)[C@]3(C)[C@H]3[C@@]4(O)OC[C@]32[C@@H]1[C@@H](C)[C@H]4O)C(C)C
yes (1)

What outcome does the record of this test show for Oc1c(C2=N[C@H]3CCCC[C@@H]3N2)ccc2ccccc12 ?
no (0)

Please share the test call associated with O=c1c(Cc2ccccc2)c(O)cc2n1CCC2 .
no (0)

Could you check what this test reported for CCCCCCCCCCC[N+]1(Cc2ccccc2)CC2CCN(Cc3ccccc3)CC2C1 (stereo not given) ?
yes (1)

Record request — test call for CC(C)CCCCCCCC(O)CC(=O)NC(CS(=O)(=O)O)C(=O)NC(CC(C)C)C(=O)NCCCC(=O)NC(Cc1c[nH]cn1)C(=O)NC(C)C(=O)NC1C(=O)NC(C(C)O)C(=O)NC(Cc2c[nH]cn2)C(=O)NC(C)C(=O)NC(C(C)O)C(=O)OC1C (stereo not given) (X49-[Cya]L[GABA]HATTHAT; ester 6-C; configuration not given here)
no (0)

What classification did CCOC(=O)C1=C(Nc2cccc3ccccc23)OC/C1=N\NC(=O)c1ccccc1O end up with in this test?
no (0)

# fetch the recorded call for CN1CCc2c1nc(-c1cccnc1)c1c2N(C)CC1 here
no (0)

Hi team, can someone confirm the assay call for CC(C)=Cc1cc2c(cc1O)CCC1C2CC[C@@]2(C)C1CC[C@@H]2O (stereo not given in full) ?
no (0)

// outcome(item) with item = CCCc1nc(Cl)c(Cl)c(Cl)n1
no (0)

Assay outcome for Cc1nc2c(C)ccc([N+](=O)[O-])c2c(NCCCN(C)C)c1C : what was it?
no (0)

Kindly provide the recorded test outcome for the following compound: O=C(CC(C(=O)c1ccco1)c1ccsc1)c1ccco1 (stereo not given)
no (0)

Query: recorded result category for NC(=O)Nc1ccc(C(=O)NCCCNC(=O)c2ccc(NC(N)=O)cc2)cc1 in this test
no (0)

Field: outcome | Entry: CC(=O)OCC1OC(OC(C)=O)C(NC#N)C(OC(C)=O)C1OC(C)=O (stereo not given)
no (0)

Would you mind telling me which call this test gave OC1OC(c2ccco2)C(F)(F)C(F)(F)C1(F)F (stereo not given) ?
no (0)

State the result this test recorded for CC(=O)NC1C(OCc2ccccc2)OC(CO)C(O)C1OCC(=O)N[C@@H](C)C(=O)N[C@H](CCC(=O)NCCNc1ccc([N+](=O)[O-])c2[nH]c3ccccc3c(=O)c12)C(N)=O (stereo not given in full) .
no (0)

Status in this test for CC1=C(C(=O)Nc2ccccc2C)C(c2ccc(Cl)cc2)C(C(=O)Nc2ccccc2C)=C(C)N1 ?
no (0)

Hi, do you know how CNC(=O)SCC(NC(=O)CCC(N)C(=O)O)C(=O)NCC(=O)O (stereo not given) came out in this test?
no (0)

Please state the recorded outcome for this compound: CCCCCCCCP(=O)(O)OP(=O)(O)OCC1OC(n2ccc(N)nc2=O)C(O)C1O (stereo not given)
no (0)

Record request — test call for CC(=O)OC1COC(n2c3ccccc3c3ccc4c5ccccc5[nH]c4c32)C(OC(C)=O)C1OC(C)=O (stereo not given)
no (0)

Field: outcome | Entry: Nc1c(Cl)cc(-c2nc3ccccc3s2)cc1Cl
no (0)

The origin of these recorded values is ChEMBL document CHEMBL1201862.
